- tested_on: HLA-A3.2 (A*0301) (Homo sapiens, UniProt P04439)
- protocol_notes: biochemical
- Type: binding
No end group written: not given here.
measurement_name: pIC50
# reply with the number alone; pIC50 is -log10 of concentration in mol/L

# seq_text, pIC50
data = [
    ("KIDWLIKRIR [Peptide 9017.0248]", 5.06),
    ("SSCMGGMNR [Peptide 1556.59]", 6.69),
    ("ALFTAQEAK [Peptide 88.0323]", 7.55),
]

Fill blank: measured pIC50 of the sequence TVSATQLVK [Peptide 1589.08] is ____.
8.19

###

- tested_on: A*6801 (Homo sapiens, UniProt P04439, A269V/D185E/E176V/E277Q/E87N/F33Y/G231S/I121M/I166T/I218V/L180W/L300P/L318F/N151K/P208A/P217A/Q86R/R169H/T345S)
- protocol_notes: biochemical
Attribute: IC50
Write the number in nM without appending the unit.

# molecule, measured_value
data = [
    ("CC(C)C[C@H](NC(=O)[C@H](Cc1c[nH]cn1)NC(=O)[C@H](CO)NC(=O)[C@H](CO)NC(=O)[C@H](Cc1c[nH]cn1)NC(=O)[C@H](C)NC(=O)[C@@H](N)CCCNC(=N)N)C(=O)N[C@@H](CCCCN)C(=O)O [Peptide 1556.70]", 2880),
]

Entry CC[C@H](C)[C@H](N)C(=O)N[C@@H](CO)C(=O)N[C@@H](Cc1ccccc1)C(=O)N[C@@H](C)C(=O)NCC(=O)N[C@H](C(=O)N[C@H](C(=O)N[C@H](C(=O)N[C@@H](CCCCN)C(=O)O)[C@@H](C)O)C(C)C)[C@@H](C)CC [Peptide 1589.17] has what IC50?
31

###

Listed here: items and their measured pIC50.
- tested_on: DR7 (DRB1*0701) (Homo sapiens, UniProt P01903+P01911, A100R/A102G/A103Q/D57E/D86V/E43K/F76Y/K127E/L162R/M171V/P40G/Q125H/Q99D/R33Q/R42Y/R54Q/S133A/S66F/T210M/V115G/Y107V/Y59L/Y89S)
- protocol_notes: biochemical
- Format: binding
No end group written: not given here.
The scale used: pIC50 is minus the common logarithm of the concentration in molar units.

# seq_text, measured_value
rows = [
    ("QSTQVDIRILQELLM [Peptide 1543.11]", 5.27),
    ("LLQLKCPPILLTSNI [Peptide 89.0091]", 6.21),
    ("CMLIQPPKLRSTAAA [Peptide 89.0047]", 6.33),
]

Then this sequence:
Would you kindly share the measured pIC50 for RLTVSKLMSQLLNIP [Peptide 89.0100] ?
5.30

###

Documented IC50 across a set of sequences
- tested_on: DRB1*0301 (Homo sapiens, UniProt P01903+P01911, A100K/A102G/A103R/A169T/F55Y/I96L/K41T/L162R/M171V/P40S/Q125H/Q178H/Q39Y/R42S/S66N/T106N/T262R/W38E/Y61H)
- Sequence (P01903 26-254 limits assumed, other chains not shown): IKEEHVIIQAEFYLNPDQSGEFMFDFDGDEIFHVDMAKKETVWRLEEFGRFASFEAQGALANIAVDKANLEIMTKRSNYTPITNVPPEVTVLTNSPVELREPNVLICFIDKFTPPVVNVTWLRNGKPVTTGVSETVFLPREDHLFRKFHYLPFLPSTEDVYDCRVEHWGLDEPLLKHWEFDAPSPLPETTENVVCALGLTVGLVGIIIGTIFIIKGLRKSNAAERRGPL
- protocol_notes: biochemical
- Type: binding
No end group written: not given here.
Numbers only; they are read as nM.

Worked examples follow.
# seq_text, IC50 (nM)
records = [
    ("SDEISFAGIVTKLPT [Peptide 1601.45]", 1660),
    ("ETCMVIEPPKLRSQT [Peptide 90.0083]", 275),
    ("LKAICIEKQSRAAKR [Peptide 90.0032]", 21),
]

Which IC50 is listed for GKSLFGMSLMKFLQG [Peptide 89.0019] ?
2740

And LKLFLKGVPKKNCIL [Peptide 89.0054] ?
9900

Then DNELTDDSDIAYYYA [Peptide 90.0085] ?
98

What do you have for CQAIELQLALEALNK [Peptide 90.0014] ?
466

Repeat for the following sequence: KIGMIDDVTPISWTY [Peptide 90.0087]
70

Next sequence: GKSYFGMSLIQFLKG [Peptide 89.0075]
8830

All figures here come from patent US9340577B2.
